test system: Escherichia coli TOP10; experiment: shrunken log2 fold change of peptide-encoding DNA abundance (4.5 h post-induction vs induction); higher = less antimicrobial activity (less host growth inhibition); conditions: time post-induction: 4.5 h; library: site-saturation at positions 5, 18, 19, 20
measure: shrunken log2 fold change

Reference set (5 entries):
residues | measure | measured.result
RRIRNRPPRLPRPRPRPETTPRP | shrunken log2 fold change | 0.0795
RRIRIRPPRLPRPRPRPEDNPRP | shrunken log2 fold change | -0.138
RRIRTRPPRLPRPRPRPQVIPRP | shrunken log2 fold change | -0.232
RRIRARPPRLPRPRPRPGAEPRP | shrunken log2 fold change | 1.1
RRIRYRPPRLPRPRPRPTYQPRP | shrunken log2 fold change | -0.00459

[ask] Fill in: shrunken log2 fold change on Escherichia coli TOP10, entry `RRIRERPPRLPRPRPRPRVLPRP`
[reply] 0.161

[ask] Answer with shrunken log2 fold change of `RRIRSRPPRLPRPRPRPCGHPRP` measured for Escherichia coli TOP10.
[reply] 0.0213

[ask] State recorded shrunken log2 fold change with Escherichia coli TOP10, entry `RRIRCRPPRLPRPRPRPPAGPRP` , no comment.
[reply] 0.79

* * *

Some sequences, each annotated with its measured shrunken log2 fold change.
system: Escherichia coli TOP10; experiment: shrunken log2 fold change of peptide-encoding DNA abundance (4.5 h post-induction vs induction); higher = less antimicrobial activity (less host growth inhibition); settings: time post-induction: 4.5 h; library: site-saturation at positions 5, 18, 19, 20
Enter the number alone.

residues | measured.result
RRIRNRPPRLPRPRPRPHRCPRP | -0.0136
RRIRWRPPRLPRPRPRPQVVPRP | -0.00458
RRIRARPPRLPRPRPRPGDDPRP | 0.846

[ask] Provide only the value of recorded shrunken log2 fold change for `RRIRHRPPRLPRPRPRPTTGPRP`
[reply] -0.117

[ask] Please indicate shrunken log2 fold change recorded for `RRIRTRPPRLPRPRPRPMDLPRP`
[reply] -0.0399

[ask] Give reported shrunken log2 fold change value for `RRIRCRPPRLPRPRPRPARKPRP`
[reply] 0.21

[ask] Using the record for `RRIRFRPPRLPRPRPRPGITPRP` , state its measured shrunken log2 fold change.
[reply] -0.45

[ask] Return reported shrunken log2 fold change. Input sequence: `RRIRPRPPRLPRPRPRPNGRPRP`
[reply] -0.00968

[ask] Give reported shrunken log2 fold change value for `RRIRQRPPRLPRPRPRPAADPRP`
[reply] 0.0593

[ask] For the sequence `RRIRCRPPRLPRPRPRPLGYPRP` , give its measured shrunken log2 fold change value.
[reply] 0.0405

[ask] Look up and report measured shrunken log2 fold change for this entry: `RRIRPRPPRLPRPRPRPYALPRP`
[reply] -1.08

[ask] Report shrunken log2 fold change, nothing else, for this sequence: `RRIRQRPPRLPRPRPRPFNCPRP`
[reply] -0.0275

[ask] Supply shrunken log2 fold change value. Item: `RRIRKRPPRLPRPRPRPDQQPRP`
[reply] 0.0777

[ask] Given the sequence `RRIRLRPPRLPRPRPRPFQNPRP` , write its reported shrunken log2 fold change.
[reply] -0.0252

[ask] Specify measured shrunken log2 fold change for `RRIRHRPPRLPRPRPRPSFRPRP` .
[reply] -0.15

[ask] Please list shrunken log2 fold change recorded for the sequence `RRIRMRPPRLPRPRPRPCSPPRP`
[reply] 0.0324

[ask] Assign shrunken log2 fold change to the following record: `RRIRPRPPRLPRPRPRPAVKPRP`
[reply] 0.171

[ask] Dear colleague, please send me the reported shrunken log2 fold change for `RRIRNRPPRLPRPRPRPRDIPRP` when you can.
[reply] -0.138

[ask] Name the recorded shrunken log2 fold change of the item `RRIRHRPPRLPRPRPRPCFLPRP` in your answer.
[reply] -0.0717

[ask] Please supply the value of reported shrunken log2 fold change for the item `RRIRNRPPRLPRPRPRPSLCPRP`
[reply] 0.0773

[ask] Give the reported shrunken log2 fold change for this sequence. `RRIRLRPPRLPRPRPRPNPMPRP`
[reply] 0.0102

[ask] Given `RRIRNRPPRLPRPRPRPKDYPRP` , respond with its shrunken log2 fold change.
[reply] -0.232

[ask] Find the measured shrunken log2 fold change of `RRIRWRPPRLPRPRPRPQAYPRP` and report it.
[reply] 0.0869

[ask] Give a short answer stating reported shrunken log2 fold change for `RRIRQRPPRLPRPRPRPRQQPRP` .
[reply] -0.0145

[ask] Please give measured shrunken log2 fold change of the following entry: `RRIRYRPPRLPRPRPRPFAYPRP`
[reply] -0.00131

[ask] Note down shrunken log2 fold change recorded for `RRIRWRPPRLPRPRPRPHMYPRP`
[reply] -0.443

* * *

test system: Escherichia coli TOP10; experiment: shrunken log2 fold change of peptide-encoding DNA abundance (4.5 h post-induction vs induction); higher = less antimicrobial activity (less host growth inhibition); conditions: time post-induction: 4.5 h; library: site-saturation at positions 5, 18, 19, 20
Reported shrunken log2 fold change maps to class as: low range = under -0.1, mid range = from -0.1 up to 0.1, high range = 0.1 and over

residues | class.label
RRIRERPPRLPRPRPRPLKHPRP | low range

[ask] Category of `RRIRVRPPRLPRPRPRPMICPRP` , please.
[reply] mid range

[ask] Which shrunken log2 fold change category applies to `RRIRLRPPRLPRPRPRPGWSPRP` here?
[reply] mid range

[ask] Hey, which category is `RRIRNRPPRLPRPRPRPRTYPRP` in, do you know?
[reply] low range

[ask] Assign a bin to `RRIRVRPPRLPRPRPRPEAEPRP`
[reply] high range

[ask] # classify by shrunken log2 fold change band: `RRIRVRPPRLPRPRPRPRRSPRP`
[reply] high range

[ask] Band assignment needed for `RRIRTRPPRLPRPRPRPRCGPRP` please.
[reply] high range

[ask] Entry `RRIRLRPPRLPRPRPRPWCCPRP` belongs to which category?
[reply] low range

[ask] Which class is correct for the following sequence? `RRIRLRPPRLPRPRPRPMNPPRP`
[reply] mid range

[ask] Note: place this sequence into its band. Item: `RRIRQRPPRLPRPRPRPGELPRP`
[reply] mid range

[ask] Tag the class for `RRIRPRPPRLPRPRPRPPHCPRP`
[reply] high range

[ask] Hi, small favor: classify `RRIRIRPPRLPRPRPRPSVSPRP` by its shrunken log2 fold change when you get a moment.
[reply] mid range

[ask] Please report the category associated with `RRIRNRPPRLPRPRPRPVMRPRP` , nothing else.
[reply] high range

[ask] GET /class?item= `RRIRRRPPRLPRPRPRPSVFPRP`
[reply] high range

[ask] Class? Entry: `RRIRYRPPRLPRPRPRPNHAPRP`
[reply] low range

[ask] Would you mind sorting `RRIRARPPRLPRPRPRPPRNPRP` into the appropriate category?
[reply] high range

* * *

tested on: Escherichia coli TOP10; experiment: shrunken log2 fold change of peptide-encoding DNA abundance (4.5 h post-induction vs induction); higher = less antimicrobial activity (less host growth inhibition); details: time post-induction: 4.5 h; library: site-saturation at positions 5, 18, 19, 20
measure: shrunken log2 fold change
The reply should be a number, written without any unit.

residues | shrunken log2 fold change
RRIRPRPPRLPRPRPRPTLGPRP | 0.564
RRIRNRPPRLPRPRPRPWSGPRP | -0.173
RRIRFRPPRLPRPRPRPQGMPRP | -0.0535
RRIRHRPPRLPRPRPRPKVYPRP | 0.0338
RRIRTRPPRLPRPRPRPIYIPRP | -0.949
RRIRCRPPRLPRPRPRPLDHPRP | -0.289
RRIRFRPPRLPRPRPRPQWNPRP | -0.345
RRIRDRPPRLPRPRPRPRKLPRP | 0.0892
RRIRARPPRLPRPRPRPPPSPRP | 1.26
RRIRCRPPRLPRPRPRPRQFPRP | 0.0823

[ask] Let me know recorded shrunken log2 fold change for `RRIRMRPPRLPRPRPRPDNPPRP` , thanks.
[reply] 0.0534

[ask] // fetch shrunken log2 fold change given entry `RRIRARPPRLPRPRPRPPMQPRP`
[reply] 0.781

* * *

tested on: Escherichia coli TOP10; assay: shrunken log2 fold change of peptide-encoding DNA abundance (4.5 h post-induction vs induction); higher = less antimicrobial activity (less host growth inhibition); conditions: time post-induction: 4.5 h; library: site-saturation at positions 5, 18, 19, 20;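 further: peptides expressed intracellularly from a pBAD plasmid library in pooled LB shake-flask culture, induced with 0.3% L-arabinose, DNA abundance read by NGS, three biological replicates, DESeq2 with apeglm shrinkage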
measure: shrunken log2 fold change
Reply with the value as a number alone.

residues | measured.result
RRIRNRPPRLPRPRPRPHKIPRP | -0.657
RRIRLRPPRLPRPRPRPMYTPRP | -0.119
RRIRPRPPRLPRPRPRPFGRPRP | -0.314
RRIRIRPPRLPRPRPRPNRFPRP | -0.174
RRIRCRPPRLPRPRPRPAKIPRP | -0.361

[ask] Complete the entry with shrunken log2 fold change for `RRIRVRPPRLPRPRPRPHSWPRP`
[reply] 0.0662
